Where do these numbers come from? They come from ChEMBL document CHEMBL3102710.

measurement-description: Inhibition of quorum sensing system in Pseudomonas aeruginosa PAO1 MH602 harboring lasB promoter fused with GFP-ASV assessed as reduction in GFP-ASV reporter protein expression at 88 uM measured every 30 mins relative to control
Label condition not met if inhibition falls below 50%; label condition met in every other case.

CCCC(SC(=O)CCCO[N+](=O)[O-])C1=CC(=C(Br)Br)OC1=O (stereo not given) :: condition not met
CCCC(OC(=O)CCCCCCCO[N+](=O)[O-])C1=CC(=C(Br)Br)OC1=O (stereo not given) :: condition not met
CCCC(SC(=O)CCCCCO[N+](=O)[O-])C1=CC(=C(Br)Br)OC1=O (stereo not given) :: condition not met
CCCCCC(O[N+](=O)[O-])C1=CC(=C(Br)Br)OC1=O (stereo not given) :: condition met
CCCCCC(OC(=O)CC(=O)N1CCN(/[N+]([O-])=N/OC)CC1)C1=CC(=C(Br)Br)OC1=O (stereo not given) :: condition not met

Problem: Reported inhibition at or above 50%? CCCC(O[N+](=O)[O-])C1=CC(=C(Br)Br)OC1=O (stereo not given)
Solution: condition met

Problem: Reported inhibition at or above 50%? CCCC(OC(=O)CO[N+](=O)[O-])C1=CC(=C(Br)Br)OC1=O (stereo not given)
Solution: condition met

Problem: Reported inhibition at or above 50%? CCCC(OC(=O)CCCCCCCCCCO[N+](=O)[O-])C1=CC(=C(Br)Br)OC1=O (stereo not given)
Solution: condition not met

Problem: Reported inhibition at or above 50%? CCCC(OC(=O)CO/N=[N+](\[O-])N(CC)CC)C1=CC(=C(Br)Br)OC1=O (stereo not given)
Solution: condition met

Problem: Reported inhibition at or above 50%? CCCC(OC(=O)CO/N=[N+](\[O-])N1CCOCC1)C1=CC(=C(Br)Br)OC1=O (stereo not given)
Solution: condition not met

---

measurement-description: Inhibition of quorum sensing system in Pseudomonas aeruginosa PAO1 MH602 harboring lasB promoter fused with GFP-ASV assessed as reduction in GFP-ASV reporter protein expression at 29 uM measured every 30 mins relative to control
Active and inactive are the calls of the source. The calls are words filed in the database; no cut-off is given here.
quantity: inhibition

CCCCCC(O[N+](=O)[O-])C1=CC(=C(Br)Br)OC1=O (centres undefined) :: 32.5%
CCCCCCCCCCCC(OC(=O)CC(=O)N1CCN(/[N+]([O-])=N/OC)CC1)C1=CC(=C(Br)Br)OC1=O (centres undefined) :: inactive
CCCCCCCCCCCC(O[N+](=O)[O-])C1=CC(=C(Br)Br)OC1=O (centres undefined) :: inactive
CCCC(OC(=O)CCCCCO[N+](=O)[O-])C1=CC(=C(Br)Br)OC1=O (centres undefined) :: 7.9%
CCCC(OC(=O)CO[N+](=O)[O-])C1=CC(=C(Br)Br)OC1=O (centres undefined) :: 49.6%
CCCC(OC(=O)CO/N=[N+](\[O-])N(CC)CC)C1=CC(=C(Br)Br)OC1=O (centres undefined) :: 30%
CCCCCCCCCCCC(OC(=O)CCC(=O)N1CCN(/[N+]([O-])=N/OC)CC1)C1=CC(=C(Br)Br)OC1=O (centres undefined) :: inactive
CCCC(O[N+](=O)[O-])C1=CC(=C(Br)Br)OC1=O (centres undefined) :: 39.9%

Problem: Could you please provide reported inhibition for CCCC(S)C1=CC(=C(Br)Br)OC1=O (centres undefined) ? Thanks!
Solution: 4.3%

Problem: Could you please provide reported inhibition for CCCC(OC(=O)CCC(=O)N1CCN(/[N+]([O-])=N/OC)CC1)C1=CC(=C(Br)Br)OC1=O (centres undefined) ? Thanks!
Solution: 17.7%

Problem: Could you please provide reported inhibition for CCCCC1=C(Br)/C(=C/Br)OC1=O ? Thanks!
Solution: 5.9%

Problem: Could you please provide reported inhibition for CC(O[N+](=O)[O-])C1=CC(=C(Br)Br)OC1=O (centres undefined) ? Thanks!
Solution: 29%

Problem: Could you please provide reported inhibition for CCCCC1=CC(=C(Br)Br)OC1=O ? Thanks!
Solution: 17%

Problem: Could you please provide reported inhibition for CCCC(OC(=O)CO/N=[N+](\[O-])N1CCOCC1)C1=CC(=C(Br)Br)OC1=O (centres undefined) ? Thanks!
Solution: 15.9%

---

measurement-description: Inhibition of quorum sensing system in Pseudomonas aeruginosa PAO1 MH602 harboring lasB promoter fused with GFP-ASV assessed as reduction in GFP-ASV reporter protein expression at 266 uM measured every 30 mins relative to control
Each record here notes measured inhibition.
Hi! Could you send only the number? It should be in %, unit omitted.

Solved entries (count: 8):
CCCCCC(O[N+](=O)[O-])C1=CC(=C(Br)Br)OC1=O (centres undefined) :: 73.1
CCCC(O)C1=CC(=C(Br)Br)OC1=O (centres undefined) :: 85.8
CCCC(OC(=O)CCCO[N+](=O)[O-])C1=CC(=C(Br)Br)OC1=O (centres undefined) :: 55.8
CCCC(OC(=O)CCCCCCCO[N+](=O)[O-])C1=CC(=C(Br)Br)OC1=O (centres undefined) :: 40.6
CCCC(OC(=O)CO[N+](=O)[O-])C1=CC(=C(Br)Br)OC1=O (centres undefined) :: 88
CCCCCCCCCCCC(O[N+](=O)[O-])C1=CC(=C(Br)Br)OC1=O (centres undefined) :: 67.3
CCCC(OC(=O)CCCCCO[N+](=O)[O-])C1=CC(=C(Br)Br)OC1=O (centres undefined) :: 54.1
CCCC(OC(=O)CCC(=O)N1CCN(/[N+]([O-])=N/OC)CC1)C1=CC(=C(Br)Br)OC1=O (centres undefined) :: 65.4

Problem: Could you please provide reported inhibition for CCCC(O[N+](=O)[O-])C1=CC(=C(Br)Br)OC1=O (centres undefined) ? Thanks!
Solution: 91.1

Problem: Could you please provide reported inhibition for CCCC(OC(=O)CO/N=[N+](\[O-])N1CCN(C(=O)OCC)CC1)C1=CC(=C(Br)Br)OC1=O (centres undefined) ? Thanks!
Solution: 65.9

Problem: Could you please provide reported inhibition for CCCC(S)C1=CC(=C(Br)Br)OC1=O (centres undefined) ? Thanks!
Solution: 50.5

Problem: Could you please provide reported inhibition for CCCCCCCC(O[N+](=O)[O-])C1=CC(=C(Br)Br)OC1=O (centres undefined) ? Thanks!
Solution: 58.2

Problem: Could you please provide reported inhibition for CCCCC1=C(Br)/C(=C/Br)OC1=O ? Thanks!
Solution: 75.8

Problem: Could you please provide reported inhibition for CCCC(SC(=O)CCO[N+](=O)[O-])C1=CC(=C(Br)Br)OC1=O (centres undefined) ? Thanks!
Solution: 72.3
